# system: T1, human PCSK9 (proprotein convertase subtilisin kexin type 9) (human, UniProt Q8NBP7 31-692)
# T1 construct: immobilized directly (ProteOn), biotinylated (Octet) or in solution, according to the assay; also called hPCSK9; PCSK9-AF647 (labelled form)
# assay-notes: PCSK9:EGFA FRET, competitor EGFA peptide
experimental-readout: EC50 (nM)
The reply should be a number in nM, with the unit left off.

binder	EC50 [nM]
1784F03 (designed binder) MGVSDVPRDLEVVAATPTSLLISWRPPIHAYGYYRITYGETGGNSPVQEFTVPIVEGTATISGLKPGVDYTITVYAVEYTFKHSGYYHRPISINYRTEIDKPSQHHHHHH	2

Would you kindly look at the next entry?
Exam item: Value lookup for EC50; key = 2382B11 (designed binder) MGVSDVPRDLEVVAATPTSLLISWDAPAAAYGYYRITYGETGGNSPVQEFTVPVSKGTATISGLKPGVDYTITVYAVEYDFAGSGYYHRPISINYRTEIDKPSQHHHHHH
Marked response: 2.9
